Catalogue of compounds with associated composite z-score
assay-method-text: small-molecule microarray binders of probe aCHRDL2, primary screen, biochemical, biotinylated probe, 635/667 nm fluorescence (AID 1100)
condition-label: higher = more signal
Give a plain numeric answer without units written out.

Example compounds with recorded composite z-score:
[N-]=[N+]=NCc1ccccc1C[C@]1(C(=O)N2CCCCC2)COC(c2ccc(OCCCO)cc2)=N1	0.552
C=CC[C@@]1(C(=O)NCCCOC)N=C(c2ccc(OCCCO)cc2)O[C@@H]1c1ccccc1CN=[N+]=[N-]	0.772
CCc1cccc(NC(=O)O[C@H]2[C@H](OC(=O)Nc3ccccc3-c3ccccc3)[C@H](OC(=O)Nc3ccccc3-c3ccccc3)[C@@H](OC)O[C@@H]2CO)c1	0.444

Any idea what composite z-score was measured for O=C(CS)NCCCCCCNC(=O)[C@H]1C[C@H]2C(=O)NCC(=O)N2[C@H]1c1cccc(OCCO)c1 ?
-0.027

Any idea what composite z-score was measured for COc1ccc([Si](C)(C)[C@@H]2[C@@H](CC(=O)N3Cc4ccccc4C[C@H]3CO)O[C@]3(C(=O)N(Cc4ccc(I)cc4)c4ccccc43)[C@H]2C)cc1 ?
-0.357

Any idea what composite z-score was measured for COc1ccc([Si](C)(C)[C@@H]2[C@@H](CC(=O)N(CCO)Cc3ccccc3)O[C@]3(C(=O)N(Cc4cccc(I)c4)c4ccccc43)[C@H]2C)cc1 ?
0.337

Any idea what composite z-score was measured for COC(=O)C1=CC(CCCO)=CC(c2ccc(CN3CCCC3)cc2)N(C)C=C1C(=O)OC (centres undefined) ?
0.549

Any idea what composite z-score was measured for COC(=O)[C@@]1(Cc2ccc(F)cc2)[C@H]2c3cc(C(=O)N4CCCC4)n(Cc4ccc(OC(F)(F)F)cc4)c3C[C@H]2CN1C(=O)c1ccccc1 ?
0.548
